System: conscious dogs with renal hypertension
test_details: Study in conscious dogs with renal hypertension (oral, mean arterial pressure)
Type: in vivo, dog (Mongol)
condition_info: 0.5 mg/kg, digestive route, 24 h
reported_property: Mean arterial pressure after treatment, Δ mm Hg, 24 h (mm Hg)

>  <compound>
CCOC(=O)C1=C(COCCOCCN)NC(C)=C(C(=O)OC)C1c1c(F)c(F)c(F)c(F)c1F (racemic)

>  <numeric_result>
-15

$$$$
>  <compound>
CCOC(=O)C1=C(COCCOCCN(C)Cc2ccccc2)NC(C)=C(C(=O)OC)C1c1ccccc1Cl (racemic)

>  <numeric_result>
0

$$$$
>  <compound>
CCOC(=O)C1=C(COCCN)NC(C)=C(C(=O)OC)C1c1ccccc1Cl (stereo not shown) [AMLODIPINE, amlodipine, reference compound]

>  <numeric_result>
-10

$$$$
>  <compound>
CCOC(=O)C1=C(COCCOCCN)NC(C)=C(C(=O)OC)C1c1cccc(Cl)c1Cl (racemic)

>  <numeric_result>
-11

$$$$
